target: NDM-1 (Klebsiella pneumoniae, UniProt C7C422); experiment: biochemical; format: biochemical; conditions: NDM-1 enzyme, CCF2-FA substrate; read-out: NDM-1 IC50
Sequence (C7C422 whole entry, looked up, species assumed): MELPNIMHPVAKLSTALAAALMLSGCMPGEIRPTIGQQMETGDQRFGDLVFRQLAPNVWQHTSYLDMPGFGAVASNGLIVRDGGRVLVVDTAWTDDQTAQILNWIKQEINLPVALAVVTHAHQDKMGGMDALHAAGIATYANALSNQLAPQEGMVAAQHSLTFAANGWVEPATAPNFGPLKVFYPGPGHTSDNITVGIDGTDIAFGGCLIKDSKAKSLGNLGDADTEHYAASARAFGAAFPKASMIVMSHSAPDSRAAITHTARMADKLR
Field: pIC50. Provide a value for each of the molecules that follow.
Numbers only, as −log10 of the molar value.

molecule | test_system | pIC50
NCC1CCC(N[C@H]2CC[C@H](c3ccc(C(F)(F)F)c(S(N)(=O)=O)c3-c3nnn[nH]3)CC2)CC1 (stereo partly shown) [Example 699] | NDM-1 (Klebsiella pneumoniae, UniProt C7C422) | 7.74

Batch: pIC50 for all items listed.
1. COCc1cc(CCc2ccc(C(F)(F)F)c(S(N)(=O)=O)c2-c2nn[nH]n2)cnc1N
2. NS(=O)(=O)c1c(C(F)(F)F)ccc(N2CC3C(CO)C3C2)c1-c1nnn[nH]1 (stereo not shown)
3. NS(=O)(=O)c1c(C(F)(F)F)ccc(-c2cnn3ccccc23)c1-c1nnn[nH]1
4. NS(=O)(=O)c1c(C(F)(F)F)ccc(-c2ccc(C(O)C3CCNCC3)cc2)c1-c1nnn[nH]1 (stereo not shown)
5. NS(=O)(=O)c1c(C(F)(F)F)ccc(-c2cccc3c[n+]([O-])ccc23)c1-c1nn[nH]n1
6. N=C(N)NC1CCC(CCc2ccc(C(F)(F)F)c(S(N)(=O)=O)c2-c2nn[nH]n2)CC1 (stereo not shown)

1: 6.79; 2: 8.29; 3: 9.05; 4: 8.89; 5: 8.62; 6: 7.61

---

target: NDM-1 (Klebsiella pneumoniae); assay: biochemical; format: biochemical; details: NDM-1 enzyme, CCF2-FA fluorescence assay; read-out: NDM-1 IC50
Checkbox rule: IC50 lower than 4 nM = yes; IC50 not lower than 4 nM = no.

Completed entries (count: 5):
entry_smiles | qualitative_label
NCc1nccc2cc(-c3cccc(S(N)(=O)=O)c3-c3nn[nH]n3)ccc12 | yes
NC(=O)c1ccc2cc(-c3cccc(S(N)(=O)=O)c3-c3nn[nH]n3)ccc2n1 | yes
Cc1ccc(-c2cc(-c3cnn(C)c3)cc(S(N)(=O)=O)c2-c2nn[nH]n2)cc1 | yes
NS(=O)(=O)c1c(CC2(F)CCNCC2)ccc(-c2ccc(C3CCNCC3)cc2)c1-c1nn[nH]n1 | yes
NS(=O)(=O)c1c(CC2CCNCC2)ccc(-c2ccc(C3CCNCC3)cc2)c1-c1nn[nH]n1 | no

State whether 4 nM exceeds IC50 recorded for NS(=O)(=O)c1cccc(-c2ccc(CN3CNC(=O)C3)cc2)c1-c1nnn[nH]1 .
no

State whether 4 nM exceeds IC50 recorded for NS(=O)(=O)c1cccc(-c2ccc(CO)nc2)c1-c1nnn[nH]1 .
no

State whether 4 nM exceeds IC50 recorded for Cc1cc(CNCc2ccc(-c3cccc(S(N)(=O)=O)c3-c3nnn[nH]3)cc2)n[nH]1 .
no

---

molecular target: VIM-1 (Pseudomonas aeruginosa (strain ATCC 15692 / DSM 22644 / CIP 104116 / JCM 14847 / LMG 12228 / 1C / PRS 101 / PAO1)); test: Enzyme activity: determination of IC50, fluorescence assay with CCF2-FA substrate (VIM-1); assay type: biochemical; conditions: VIM-1 enzyme, CCF2-FA substrate; read-out: VIM-1 IC50
endpoint: pIC50
One number for each entry, as −log10 of the molar value.

Previously resolved entries follow.
compound | pIC50
NS(=O)(=O)c1c(C[C@H]2CC[C@H](N)CC2)ccc(-c2ccc(C3CCNC3)cc2)c1-c1nn[nH]n1 (stereo partly shown) | 8.80
NCc1ccc(-c2ccc(CC3CCNCC3)c(S(N)(=O)=O)c2-c2nn[nH]n2)cc1 | 7.50
Nc1nc2c(-c3ccc(CCC4CCNCC4)c(S(N)(=O)=O)c3-c3nn[nH]n3)cccc2s1 | 8.17

# ---- query compound ----
Which value of pIC50 has been reported for NS(=O)(=O)c1c(C(F)(F)F)ccc(C2CCn3cncc3C2)c1-c1nnn[nH]1 (stereo not shown) in the records?
9.37

---

biological target: VIM-1 (Pseudomonas aeruginosa (strain ATCC 15692 / DSM 22644 / CIP 104116 / JCM 14847 / LMG 12228 / 1C / PRS 101 / PAO1)); assay: Enzyme activity: determination of IC50, fluorescence assay with CCF2-FA substrate (VIM-1); assay type: biochemical; settings: VIM-1 enzyme, CCF2-FA substrate; read-out: VIM-1 IC50
endpoint: IC50 (nM)
Answers are plain numbers, in nM.

Previously resolved entries follow.
entry_smiles | endpoint | quantitative_result
NS(=O)(=O)c1c(C(F)(F)F)ccc(-c2ccc(-c3c[nH]c(O)n3)cc2)c1-c1nnn[nH]1.O=C(O)C(F)(F)F | IC50 | 0.212
NS(=O)(=O)c1c(C(F)(F)F)ccc([C@H]2CC[C@H](NCC3CCNCC3)CC2)c1-c1nnn[nH]1 | IC50 | 5.16
Cc1cc(N)ncc1Cc1cccc(S(N)(=O)=O)c1-c1nn[nH]n1 | IC50 | 41.4

# ---- query molecule ----
Which value of IC50 has been reported for NS(=O)(=O)c1c(C(F)(F)F)ccc(-c2snc3ncccc23)c1-c1nnn[nH]1 in the records?
0.289

---

target: VIM-1 (Pseudomonas aeruginosa (strain ATCC 15692 / DSM 22644 / CIP 104116 / JCM 14847 / LMG 12228 / 1C / PRS 101 / PAO1)); assay: Enzyme activity: determination of IC50, fluorescence assay with CCF2-FA substrate (VIM-1); type: biochemical; settings: fluorescence assay with CCF2-FA substrate; read-out: VIM-1 IC50
endpoint: pIC50
Give bare numbers, as −log10 of the molar value.

compound | pIC50
NS(=O)(=O)c1cccc(-c2cccc(F)n2)c1-c1nn[nH]n1 | 6.66

Batch: pIC50 for all items listed.
1. N#CC1(c2ccc(-c3cccc(S(N)(=O)=O)c3-c3nnn[nH]3)cc2)CCOCC1
2. NS(=O)(=O)c1c(C(F)(F)F)ccc([C@H]2CC[C@@H](C3CCNCC3)CC2)c1-c1nnn[nH]1

[7.34, 8.55]

---

Field: IC50. Provide a value for each of the compounds that follow.
target: NDM-1 (Klebsiella pneumoniae); experiment: biochemical; type: biochemical; settings: NDM-1 enzyme, CCF2-FA substrate; read-out: NDM-1 IC50
Answers are plain numbers, in nM.

Previously resolved entries follow.
compound | endpoint | unit_name | quantitative_result
NS(=O)(=O)c1cccc(-c2ccc(N3CCC(CO)C3)nc2)c1-c1nnn[nH]1 (stereo not shown) | IC50 | nM | 4.39
NS(=O)(=O)c1c(C(F)(F)F)ccc(-c2cnc3ncccn23)c1-c1nnn[nH]1 | IC50 | nM | 58.7
NS(=O)(=O)c1c(C(F)(F)F)ccc(-c2cnc(N3CCNCC3)nc2)c1-c1nnn[nH]1 | IC50 | nM | 4.52

# ---- query compound ----
Which value of IC50 has been reported for CNCCN1CCC(c2ccc(-c3ccc(C(F)(F)F)c(S(N)(=O)=O)c3-c3nnn[nH]3)cc2)CC1 in the records?
6.63

---

Field: IC50. Provide a value for each of the compounds that follow.
target: NDM-1 (Klebsiella pneumoniae, UniProt C7C422); test: biochemical; assay type: biochemical; conditions: fluorescence assay with CCF2-FA substrate; read-out: NDM-1 IC50
Numbers only, in nM.

compound | unit_name | quantitative_result
COc1cc(-c2cccc(S(N)(=O)=O)c2-c2nnn[nH]2)ccn1 [Example 135] | nM | 4.47

Batch: IC50 for all items listed.
1. NS(=O)(=O)c1cccc(C2CCCN(C(=O)C3CC3)C2)c1-c1nn[nH]n1 (centres unmarked) [Example 177]
2. NS(=O)(=O)c1nccc(-c2ccc(C(=O)NC3CC3)cc2)c1-c1nnn[nH]1 [Example 185]
3. N=C(N)N1CCC2(CCC(c3ccc(C(F)(F)F)c(S(N)(=O)=O)c3-c3nnn[nH]3)CC2)CC1 [Example 826]
4. Nc1cncc(-c2cccc(S(N)(=O)=O)c2-c2nnn[nH]2)n1 [Example 137]
5. CS(=O)(=O)N1CCC(c2cccc(S(N)(=O)=O)c2-c2nn[nH]n2)CC1 [Example 172]
6. NC1Cc2cccc(-c3ccc(C(F)(F)F)c(S(N)(=O)=O)c3-c3nnn[nH]3)c2C1 (centres unmarked) [Example 836]

[12.8, 135, 0.491, 30.7, 16.5, 54.9]

---

system: Serratia marcescens expressing IMP-1 (CL5741); test: Antibiotic potentiation activity: synergistic concentration (MITC95) with imipenem, OD600 growth; format: cell-based; conditions: concentration giving 95% inhibition of bacterial growth
endpoint: Serratia marcescens expressing IMP-1 (CL5741) MITC95 (µM)
Numbers only, in µM.

Previously resolved entries follow.
compound | test_system | quantitative_result
CN1CCN(c2ncc(-c3cccc(S(N)(=O)=O)c3-c3nnn[nH]3)cn2)CC1 | Serratia marcescens expressing IMP-1 (CL5741) | 9.375
NS(=O)(=O)c1cccc(-c2ccco2)c1-c1nn[nH]n1 | Serratia marcescens expressing IMP-1 (CL5741) | 9.375
Cn1nccc1-c1cccc(S(N)(=O)=O)c1-c1nn[nH]n1 | Serratia marcescens expressing IMP-1 (CL5741) | 150

Batch: Serratia marcescens expressing IMP-1 (CL5741) MITC95 for all items listed.
1. NS(=O)(=O)c1cccc(-c2cnc(N3CCCCC3)nc2)c1-c1nnn[nH]1
2. NS(=O)(=O)c1cccc(-c2cnc(NCCO)nc2)c1-c1nnn[nH]1
3. Cn1cncc1-c1cccc(S(N)(=O)=O)c1-c1nn[nH]n1
4. NS(=O)(=O)c1cccc(C2CCCN(C(=O)C3CC3)C2)c1-c1nn[nH]n1 (centres unmarked)
5. NS(=O)(=O)c1cccc(-c2cccc3c2NCCC3)c1-c1nnn[nH]1
6. NS(=O)(=O)c1nccc(N2CCC3(CC2)NCNC3=O)c1-c1nnn[nH]1
7. NS(=O)(=O)c1cccc(Cc2ccccc2)c1-c1nnn[nH]1
8. NS(=O)(=O)c1nccc(-c2ccc(C(=O)O)cc2)c1-c1nnn[nH]1

1: 4.688; 2: 9.375; 3: 75; 4: 37.5; 5: 25; 6: 100; 7: 12.5; 8: 50
